Provenance of the data: patent US4863935A

LD50 at 336 h overview
# experiment.summary: LD50 acute toxicity, ddy mice, single abdominal injection
# measurement.conditions: mouse, in vivo, ip, 5 ddy mice, 14 days observation, Behrens-Koerber's method

{"molecule": "CCN(CC)C(=O)SCCNC1=C(C)C(=O)C2=C(C1=O)[C@@H](COC(N)=O)[C@@]1(OC)[C@H]3N[C@H]3CN21", "LD50 at 336 h": "45 mg/kg"}
{"molecule": "COC(=O)[C@@H]1CC(O)CN1C(=O)SCCNC1=C(C)C(=O)C2=C(C1=O)[C@@H](COC(N)=O)[C@@]1(OC)[C@H]3N[C@H]3CN21 (stereo partly shown)", "LD50 at 336 h": "> 100 mg/kg"}
{"molecule": "CCNC(=O)SCCNC1=C(C)C(=O)C2=C(C1=O)[C@@H](COC(N)=O)[C@@]1(OC)[C@H]3N[C@H]3CN21", "LD50 at 336 h": "52.5 mg/kg"}
{"molecule": "CCCNC(=S)SCCNC1=C(C)C(=O)C2=C(C1=O)[C@@H](COC(N)=O)[C@@]1(OC)[C@H]3N[C@H]3CN21", "LD50 at 336 h": "> 25 mg/kg"}
{"molecule": "CCCCNC(=O)SCCNC1=C(C)C(=O)C2=C(C1=O)[C@@H](COC(N)=O)[C@@]1(OC)[C@H]3N[C@H]3CN21", "LD50 at 336 h": "43.8 mg/kg"}
{"molecule": "CO[C@@]12[C@H](COC(N)=O)C3=C(C(=O)C(C)=C(NCCSC(=O)NC(C)(C)C(=O)OC(C)(C)C)C3=O)N1C[C@@H]1N[C@@H]12", "LD50 at 336 h": "37.5 mg/kg"}
{"molecule": "CO[C@@]12[C@H](COC(N)=O)C3=C(C(=O)C(C)=C(NCCSC(=O)N4CCC[C@H]4C(=O)Nc4ccc(O)cc4)C3=O)N1C[C@@H]1N[C@@H]12", "LD50 at 336 h": "> 100 mg/kg"}
{"molecule": "CO[C@@]12[C@H](COC(N)=O)C3=C(C(=O)C(C)=C(NCCSC(=O)N4CCC[C@H]4C(=O)NCc4ccccc4)C3=O)N1C[C@@H]1N[C@@H]12", "LD50 at 336 h": "75 mg/kg"}
{"molecule": "CO[C@@]12[C@H](COC(N)=O)C3=C(C(=O)C(C)=C(NCCSC(=O)N(C)NC=O)C3=O)N1C[C@@H]1N[C@@H]12", "LD50 at 336 h": "105 mg/kg"}
{"molecule": "CO[C@@]12[C@H](COC(N)=O)C3=C(C(=O)C(C)=C(NCCSC(=O)N4CCC(Cc5ccccc5)CC4)C3=O)N1C[C@@H]1N[C@@H]12", "LD50 at 336 h": "41.3 mg/kg"}
{"molecule": "CO[C@@]12[C@H](COC(N)=O)C3=C(C(=O)C(C)=C(NCCSC(=O)N4CCC[C@H]4C(N)=O)C3=O)N1C[C@@H]1N[C@@H]12", "LD50 at 336 h": "75 mg/kg"}
{"molecule": "CO[C@@]12[C@H](COC(N)=O)C3=C(C(=O)C(C)=C(NCCSC(=O)N(C)C)C3=O)N1C[C@@H]1N[C@@H]12", "LD50 at 336 h": "26.3 mg/kg"}
{"molecule": "COC(=O)[C@@H](NC(=O)SCCNC1=C(C)C(=O)C2=C(C1=O)[C@@H](COC(N)=O)[C@@]1(OC)[C@H]3N[C@H]3CN21)C(C)C", "LD50 at 336 h": "37.5 mg/kg"}
{"molecule": "CO[C@@]12[C@H](COC(N)=O)C3=C(C(=O)C(C)=C(NCCSC(=O)NC4CCCCC4)C3=O)N1C[C@@H]1N[C@@H]12", "LD50 at 336 h": "43.8 mg/kg"}
{"molecule": "CO[C@@]12[C@H](COC(N)=O)C3=C(C(=O)C(C)=C(NCCSC(=O)NC(CC(=O)OCc4ccccc4)c4ccccc4)C3=O)N1C[C@@H]1N[C@@H]12 (stereo partly shown)", "LD50 at 336 h": "> 100 mg/kg"}
{"molecule": "CO[C@@]12[C@H](COC(N)=O)C3=C(C(=O)C(C)=C(NCCSC(=O)NC(C)C)C3=O)N1C[C@@H]1N[C@@H]12", "LD50 at 336 h": "45 mg/kg"}
{"molecule": "CO[C@@]12[C@H](COC(N)=O)C3=C(C(=O)C(C)=C(NCCSC(=O)N4CCC(O)CC4)C3=O)N1C[C@@H]1N[C@@H]12", "LD50 at 336 h": "52.5 mg/kg"}
{"molecule": "CO[C@@]12[C@H](COC(N)=O)C3=C(C(=O)C(C)=C(NCCSC(=O)NC4CCN(Cc5ccccc5)CC4)C3=O)N1C[C@@H]1N[C@@H]12", "LD50 at 336 h": "37.5 mg/kg"}
{"molecule": "CNC(=O)[C@@H]1CCCN1C(=O)SCCNC1=C(C)C(=O)C2=C(C1=O)[C@@H](COC(N)=O)[C@@]1(OC)[C@H]3N[C@H]3CN21", "LD50 at 336 h": "75 mg/kg"}
